# SYSTEM_TESTED: human DPP-4 enzyme (Homo sapiens)
# Construct: purchased
# Sequence (P27487 whole entry): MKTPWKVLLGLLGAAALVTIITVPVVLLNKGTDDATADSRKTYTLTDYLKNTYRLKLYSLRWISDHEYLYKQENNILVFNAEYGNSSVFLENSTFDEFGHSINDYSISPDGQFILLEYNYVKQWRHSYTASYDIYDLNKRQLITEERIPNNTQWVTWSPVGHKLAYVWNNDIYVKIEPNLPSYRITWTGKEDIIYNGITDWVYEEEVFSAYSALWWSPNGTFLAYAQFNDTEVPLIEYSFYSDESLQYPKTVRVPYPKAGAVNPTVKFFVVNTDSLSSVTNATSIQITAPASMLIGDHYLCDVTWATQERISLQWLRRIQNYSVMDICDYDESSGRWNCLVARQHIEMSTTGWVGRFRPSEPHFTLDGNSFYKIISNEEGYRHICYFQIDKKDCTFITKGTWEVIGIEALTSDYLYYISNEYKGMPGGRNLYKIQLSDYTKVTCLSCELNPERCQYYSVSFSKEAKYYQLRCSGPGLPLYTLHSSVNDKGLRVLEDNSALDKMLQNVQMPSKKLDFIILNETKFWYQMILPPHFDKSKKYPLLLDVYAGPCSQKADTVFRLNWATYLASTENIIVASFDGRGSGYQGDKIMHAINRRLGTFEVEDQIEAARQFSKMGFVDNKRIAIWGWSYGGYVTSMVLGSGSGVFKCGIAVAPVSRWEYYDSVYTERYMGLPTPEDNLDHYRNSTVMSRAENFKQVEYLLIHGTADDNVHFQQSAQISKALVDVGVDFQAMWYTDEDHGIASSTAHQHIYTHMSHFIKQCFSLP
# METHOD_SUMMARY: DPP-4 activity bioassay
# Type: biochemical
# SETUP_CONDITIONS: 62.5 µM; read-out: DPP4 (inhibition) (converted)
REPORTED_PROPERTY: inhibition at 62.5 µM (%)

CC(C)(/C=C1\SC(=O)N(C(=O)CN2CCOCC2)C1=O)[C@@H]1CC(=O)NC1=O [10a] :: 72.5
CN1C(=O)C[C@@H](C(C)(C)/C=C2\SC(=O)N(C(=O)CN3CCOCC3)C2=O)C1=O [10b] :: 62.7
COc1ccc(N2C(=O)C[C@@H](C(C)(C)/C=C3\SC(=O)N(C(=O)CN4CCOCC4)C3=O)C2=O)cc1 [10e] :: 67.3
CC(C)(/C=C1\SC(=O)N(C(=O)CN2CCOCC2)C1=O)[C@@H]1CC(=O)N(c2ccccc2)C1=O [10c] :: 62.6
CC(C)(C=C1SC(=O)N(C(=O)CN2CCOCC2)C1=O)C1CC(=O)N(Cc2ccccc2)C1=O (centres unmarked) [10d] :: 76.5

###

# SYSTEM_TESTED: α-amylase (Homo sapiens, UniProt P04746)
# Sequence (P04746 16-511): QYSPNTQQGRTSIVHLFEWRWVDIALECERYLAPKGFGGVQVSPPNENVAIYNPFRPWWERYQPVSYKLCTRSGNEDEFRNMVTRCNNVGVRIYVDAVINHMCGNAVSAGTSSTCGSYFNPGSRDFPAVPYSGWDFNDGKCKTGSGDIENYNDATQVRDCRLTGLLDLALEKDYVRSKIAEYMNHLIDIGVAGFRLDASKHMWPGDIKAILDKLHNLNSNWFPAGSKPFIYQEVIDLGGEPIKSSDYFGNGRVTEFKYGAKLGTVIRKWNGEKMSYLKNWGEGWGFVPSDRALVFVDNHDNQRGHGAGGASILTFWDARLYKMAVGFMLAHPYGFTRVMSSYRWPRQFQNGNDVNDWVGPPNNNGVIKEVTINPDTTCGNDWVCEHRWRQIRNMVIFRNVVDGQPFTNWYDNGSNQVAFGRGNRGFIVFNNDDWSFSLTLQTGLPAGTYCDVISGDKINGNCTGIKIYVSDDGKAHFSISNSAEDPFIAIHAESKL
# METHOD_SUMMARY: in vitro α-amylase inhibitory activity
# Assay type: biochemical
# SETUP_CONDITIONS: 125 µM; read-out: % α-Amylase Inhibition (converted)
REPORTED_PROPERTY: inhibition at 125 µM (%)

CC(C)(/C=C1\SC(=O)N(C(=O)CN2CCOCC2)C1=O)[C@@H]1CC(=O)N(c2ccccc2)C1=O [10c] :: 74.3
CC(C)(C=C1SC(=O)N(C(=O)CN2CCOCC2)C1=O)C1CC(=O)N(Cc2ccccc2)C1=O (centres unmarked) [10d] :: 72.7
CN1C(=O)C[C@@H](C(C)(C)/C=C2\SC(=O)N(C(=O)CN3CCOCC3)C2=O)C1=O [10b] :: 70.5
COc1ccc(N2C(=O)C[C@@H](C(C)(C)/C=C3\SC(=O)N(C(=O)CN4CCOCC4)C3=O)C2=O)cc1 [10e] :: 82.5
CC(C)(/C=C1\SC(=O)N(C(=O)CN2CCOCC2)C1=O)[C@@H]1CC(=O)NC1=O [10a] :: 72.8

###

# Tested on: α-glucosidase
# METHOD_SUMMARY: in vitro α-glucosidase inhibitory activity
# Assay type: biochemical, Homo sapiens
# SETUP_CONDITIONS: 250 µM
REPORTED_PROPERTY: % α-Glucosidase Inhibition (%)

CC(C)(C=C1SC(=O)N(C(=O)CN2CCOCC2)C1=O)C1CC(=O)N(Cc2ccccc2)C1=O (centres unmarked) [10d] :: 83.83
CN1C(=O)C[C@@H](C(C)(C)/C=C2\SC(=O)N(C(=O)CN3CCOCC3)C2=O)C1=O [10b] :: 75.62
CC(C)(/C=C1\SC(=O)N(C(=O)CN2CCOCC2)C1=O)[C@@H]1CC(=O)N(c2ccccc2)C1=O [10c] :: 76.58
COc1ccc(N2C(=O)C[C@@H](C(C)(C)/C=C3\SC(=O)N(C(=O)CN4CCOCC4)C3=O)C2=O)cc1 [10e] :: 81.08
CC(C)(/C=C1\SC(=O)N(C(=O)CN2CCOCC2)C1=O)[C@@H]1CC(=O)NC1=O [10a] :: 75.58

###

# SYSTEM_TESTED: α-amylase (Homo sapiens, UniProt P04746)
pIC50: −log10 of the molar value.
REPORTED_PROPERTY: pIC50

CN1C(=O)C[C@@H](C(C)(C)/C=C2\SC(=O)N(C(=O)CN3CCOCC3)C2=O)C1=O [10b] :: 4.67
CC(C)(/C=C1\SC(=O)N(C(=O)CN2CCOCC2)C1=O)[C@@H]1CC(=O)N(c2ccccc2)C1=O [10c] :: 4.55
CC(C)(C=C1SC(=O)N(C(=O)CN2CCOCC2)C1=O)C1CC(=O)N(Cc2ccccc2)C1=O (centres unmarked) [10d] :: 4.92

I: CC(C)(/C=C1\SC(=O)N(C(=O)CN2CCOCC2)C1=O)[C@@H]1CC(=O)NC1=O [10a]
II: COc1ccc(N2C(=O)C[C@@H](C(C)(C)/C=C3\SC(=O)N(C(=O)CN4CCOCC4)C3=O)C2=O)cc1 [10e]
# return whichever of I and II has the smaller pIC50 Answer = label. I
(I: 4.66, II: 5.02)
